# Protocol Summary: Clinically relevant exposures (clinical plasma exposure, protein adjusted)
# Type: in vivo
# Experimental Setup: human, in vivo, 4 mg, CCM protein adjusted CCM Cmax
# Protocol: Clinically relevant doses of Compound A were calculated. A set of data was selected from the synergy screening to represent clinically relevant concentration ranges of venetoclax and Compound A. […] Cmin and Ctrough of Compound A were similarly adjusted.
Measured Metric: Cmax (nM)
Answer format: numeric, nM implied, no suffix.

input: Give its Cmax value. Item: Cc1noc(C)c1-c1cc(C(O)(c2ccccn2)c2ccccn2)c2nc(C3CC3)[nH]c2c1 [Compound A]
output: 111

====

# Protocol Summary: Clinically relevant exposures (clinical plasma exposure, protein adjusted)
# Format: in vivo
# Experimental Setup: human, plasma, 400 mg, ABT-199, 400 mg dose, cell culture media adjusted; read-out: CCM protein adjusted Cmax
Measured Metric: Cmax (nM)
Answer format: numeric, nM implied, no suffix.

input: Give its Cmax value. Item: CC1(C)CCC(CN2CCN(c3ccc(C(=O)NS(=O)(=O)c4ccc(NCC5CCOCC5)c([N+](=O)[O-])c4)c(Oc4cnc5[nH]ccc5c4)c3)CC2)=C(c2ccc(Cl)cc2)C1 [venetoclax, reference compound]
output: 536

====

# Protocol Summary: Clinically relevant exposures (clinical plasma exposure, protein adjusted)
# Assay type: in vivo
# Experimental Setup: human, plasma, 400 mg, ABT-199, 400 mg dose; read-out: exposures Cmax
Measured Metric: Cmax (µM)
Answer format: numeric, µM implied, no suffix.

input: Give its Cmax value. Item: CC1(C)CCC(CN2CCN(c3ccc(C(=O)NS(=O)(=O)c4ccc(NCC5CCOCC5)c([N+](=O)[O-])c4)c(Oc4cnc5[nH]ccc5c4)c3)CC2)=C(c2ccc(Cl)cc2)C1 [venetoclax, reference compound]
output: 2.3

====

# Protocol Summary: Clinically relevant exposures (clinical plasma exposure, protein adjusted)
# Type: in vivo
# Experimental Setup: human, in vivo, protein adjusted Cmax concentration
Measured Metric: Cmax

input: Give its Cmax value. Item: Cc1noc(C)c1-c1cc(C(O)(c2ccccn2)c2ccccn2)c2nc(C3CC3)[nH]c2c1 [Compound A]
output: ~113 nM
